# Test system: N2a cells
# methodDescription: Toxicity test (CCK-8 cell proliferation assay) on cells cultured on plates not coated with REP
# Assay type: cell-based
# setupConditions: Mus musculus, N2a, Cultured Cell of C. Ex. 1 (B), 48 hrs incubation
readoutType: IC50 (µM)
Give the value, in units of µM, as a plain number.

Task: Given O=C(O)C(F)(F)C(F)(F)C(F)(F)C(F)(F)C(F)(F)C(F)(F)C(F)(F)F [PFOA, perfluorooctanoic acid] , state its recorded IC50.
Result: 310
